Let's look at some binders and their measured mAb2 binding response (RU).
- system: T1, hANGPTL3(17-460)-His (human, UniProt Q9Y5C1 17-460)
- T1 construct: Bought protein (R&D Systems); also called full-length mature human ANGPTL3 with a C-terminal decahistidine tag; Human ANGPTL3 (17-460)-His
- T1 sequence: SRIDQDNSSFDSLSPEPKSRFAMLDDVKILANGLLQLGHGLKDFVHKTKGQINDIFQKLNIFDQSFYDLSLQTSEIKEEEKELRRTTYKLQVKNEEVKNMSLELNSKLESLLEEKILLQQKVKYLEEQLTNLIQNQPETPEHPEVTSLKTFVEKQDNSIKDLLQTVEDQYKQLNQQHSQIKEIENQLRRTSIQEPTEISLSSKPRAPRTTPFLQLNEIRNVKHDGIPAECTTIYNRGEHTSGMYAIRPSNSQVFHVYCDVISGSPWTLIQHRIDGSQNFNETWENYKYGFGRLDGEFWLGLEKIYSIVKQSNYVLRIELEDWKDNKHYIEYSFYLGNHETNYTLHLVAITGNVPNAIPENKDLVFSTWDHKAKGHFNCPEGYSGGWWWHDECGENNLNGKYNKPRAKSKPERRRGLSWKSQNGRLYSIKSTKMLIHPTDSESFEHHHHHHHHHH
- assay details: Biacore cross-competition; second antibody after pre-loading with Negative Control
Lab book: enter the figure in RU, no units written.

Consider the reported mAb2 binding response (RU) for these binders:
H4H1292P (antibody, IgG4, V domains shown) VH: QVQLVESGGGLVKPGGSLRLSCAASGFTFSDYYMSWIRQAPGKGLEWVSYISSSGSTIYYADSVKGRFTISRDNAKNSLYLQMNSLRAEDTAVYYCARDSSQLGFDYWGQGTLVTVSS VL: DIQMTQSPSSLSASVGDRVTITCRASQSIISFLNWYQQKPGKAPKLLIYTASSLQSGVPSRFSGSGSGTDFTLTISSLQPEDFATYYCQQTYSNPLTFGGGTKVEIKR : 48
H4H1279P (antibody, IgG4, V domains shown) VH: QVQLVESGGGLVKPGGSLRLSCAASGFTFSDYYMSWIRQAPGKGLEWVSYIGSSGVNMYYADSVKGRFTISRDNAKNSLYLEMNSLRAEDTAVYYCARDSSQLGFDYWGQGTLVTVSS VL: DIQMTQSPSSLSASVGDRVTITCRTSQNIINFLNWYQQKPGKAPKLLIYTTSTLQSGVPSRFSGSGSGTDFTLSINSLQPEDFATYFCQQTYSNPLTFGGGTKLEIKR : 47
H4H1250P (antibody, IgG4, V domains shown) VH: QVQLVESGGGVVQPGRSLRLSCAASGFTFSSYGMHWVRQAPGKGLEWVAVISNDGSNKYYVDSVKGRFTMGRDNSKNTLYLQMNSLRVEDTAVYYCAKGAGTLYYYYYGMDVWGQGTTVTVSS VL: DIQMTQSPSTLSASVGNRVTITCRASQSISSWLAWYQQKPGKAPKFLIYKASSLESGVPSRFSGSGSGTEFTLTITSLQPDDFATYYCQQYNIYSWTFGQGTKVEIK : 187

// below: mAb2 binding response (RU) requested for another binder
INPUT: Param item = H1M896N (antibody, V domains shown) VH: EVQLLESGGGLVQPGGSLRLSCAASGFTFSTYAMSWVRQAPGKGLEGVSGISGTGYRTYYADSVKGRFTISRDNSKNSLYLQMNSLRAEDTAVYYCAKDRGLLWFGELTYWGQGTLVTVSS VL: DIQMTQSPSTLSASVGDRVTITCRASQSINNWLAWYQQKPGKAPNLLIYKASSLESGVPSRFSGSGSGTEFTLTISSLQPDDFATYYCQQYNDYWTFGQGTKVEIK ; retrieve measured mAb2 binding response (RU).
OUTPUT: 149
